Known TGI of a selection of compounds
- Tested on: MALME-3M melanoma
- protocol_summary: NCI tumour cell line growth inhibition, 48 h
quantity_name: TGI

> print(dat)
                                    compound  quantity.name  observed.value
 1  CC(=O)OC1CC(n2cc(F)c(=O)[nH]c2=O)OC1CO (stereo unspecified)            TGI        > 100 µM
 2  COC1=CC(O)(CC(N)=O)c2ccccc2C1=O (stereo unspecified)            TGI        > 100 µM
 3  Cc1ccc(NC(=O)NC(=O)c2ccc([N+](=O)[O-])cc2[N+](=O)[O-])cc1Oc1ncc(Cl)cn1            TGI         22.3 µM
 4  O=C1C(/C=C/c2ccc(Cl)cc2)=NNC2N1N=C1NC(=O)C3(NN12)c1ccccc1-c1ccccc13 (stereo unspecified)            TGI        > 100 µM
 5  COc1nc(SC)nc2c1cnn2C1OC(C(O)CO)C(OC)C1O (stereo unspecified)            TGI        > 100 µM
 6  COc1ccc(-c2ccc(/C=N/n3c(COc4ccccc4Cl)nn(CN4CCN(C)CC4)c3=S)o2)c([N+](=O)[O-])c1            TGI         49.2 µM
 7        NC(=O)C1=NNc2ccccc2C(=O)N1c1ccccc1            TGI        > 100 µM
 8  NS(=O)(=O)c1cc2c(cc1Cl)NC(Cc1ccccc1)NS2(=O)=O (stereo unspecified)            TGI        > 100 µM
 9  CC1(C)C(=O)C(C)(C)C12SSC1(S2)C(C)(C)C(=O)C1(C)C            TGI        > 100 µM
10                COc1ccc(N=C(C)c2ccncc2)cc1            TGI        > 100 µM
11  COc1ccc(-c2csc(=Nc3ccccc3)n2CC(O)c2ccc([N+](=O)[O-])cc2)cc1 (stereo unspecified)            TGI        > 100 µM
12  NC(N)=NS(=O)(=O)c1ccc(NCc2c3ccccc3nc3ccccc23)cc1            TGI         49.7 µM
13  COc1ccc(N2C(=O)C3ON(C(C(N)=O)c4ccccc4)C(c4ccc(-c5ccccc5)cc4)C3C2=O)cc1 (stereo unspecified)            TGI         > 50 µM
14  COc1ccc(/C=C2\C[C@H]3[C@@H]4CCC5=C[C@@H](N6CCCC6)CC[C@]5(C)[C@H]4CC[C@]3(C)[C@H]2O)cc1            TGI         5.87 µM
15  COC(=O)C(O)P(=O)(OC)OC (stereo unspecified)            TGI        > 100 µM
16  Cc1nc2sccn2c(=O)c1CCN1CCC(=C(c2ccc(F)cc2)c2ccc(F)cc2)CC1            TGI         25.5 µM
17  C1CCN(CCC2CCCCN2)CC1 (stereo unspecified)            TGI        > 100 µM
18  CN(C)c1ccc(C(=C2C=CC(=[N+](C)C)C=C2)c2ccc(N(C)C)cc2)cc1 (tested in a mixture with another compound)            TGI         0.56 µM
19               CC(=O)O/N=C/c1ncccc1OC(C)=O            TGI        > 100 µM
20  CCCCCC(O)C1C(=O)OC(C)C(O)/C=C/C=C/C=C/C=C\C=C(\C)C(O)CC(O)CC(O)CC(O)CC(O)CC(O)CC1O (stereo unspecified)            TGI        > 100 µM
21       CC(=O)C(=[N+]=[N-])C(=O)OC(C)(C)C#N            TGI         > 10 µM
